Target: T1, recombinant human TL1A (human, UniProt O95150 71-251)
T1 construct: homotrimer; biotinylated for SPR capture; the ELISA paragraphs say only 'recombinant TL1A'; also called TNFSF15
T1 chain: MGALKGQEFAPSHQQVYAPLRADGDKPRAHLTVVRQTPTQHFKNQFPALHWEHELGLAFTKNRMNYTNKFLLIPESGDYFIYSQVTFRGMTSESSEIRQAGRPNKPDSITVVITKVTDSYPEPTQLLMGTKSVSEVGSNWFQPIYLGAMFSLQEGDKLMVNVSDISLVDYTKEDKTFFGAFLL
Assay: competition ELISA vs bio-TL1A-0002
test readout: Bioactivity relative to TL1A-0002

binder: TL1A-0097 (antibody, IgG1, V domains shown, IgG1/kappa variant of TL1A-0002) VH: QVQLVQSGAEVKKPGASVKVSCKASGYDFTYYGISWVRQAPGQGLEWMGWISTYNGNTHYARMLQGRVTMTTDTSTRTAYMELRSLRSDDTAVYYCAREQYYGSGAYRGGMDVWGQGTTVTVSS VL: EIVLTQSPATLSLSPGERATLSCRASQSVSSYLAWYQQKPGQAPRLLIYDASNRATGIPARFSGSGSGTDFTLTISSLEPEDFAVYYCQQRSNWPWTFGQGTKVEIKR
test readout: Bioactivity relative to TL1A-0002
experimental result: 2.2 fold
//
binder: TL1A-0019 (antibody, IgG1, V domains shown, IgG1/kappa variant of TL1A-0002) VH: QVQLVQSGAEVKKPGASVKVSCKASGYDFTYYGISWVRQAPGQGLEWMGWISTYNGNTHHARMLQGRVTMTTDTSTRTAYMELRSLRSDDTAVYYCARENYYGSGAYRGGMDVWGQGTTVTVSS VL: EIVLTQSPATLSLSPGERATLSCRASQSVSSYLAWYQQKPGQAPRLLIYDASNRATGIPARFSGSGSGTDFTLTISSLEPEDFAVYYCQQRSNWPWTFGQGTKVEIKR
test readout: Bioactivity relative to TL1A-0002
experimental result: 1.1 fold
//
binder: TL1A-0088 (antibody, IgG1, V domains shown, IgG1/kappa variant of TL1A-0002) VH: QVQLVQSGAEVKKPGASVKVSCKASGYDFTYYGISWVRQAPGQGLEWMGWISTYGGNTHYAPSLQGRVTMTTDTSTRTAYMELRSLRSDDTAVYYCARENYYGSGAYRGGMDVWGQGTTVTVSS VL: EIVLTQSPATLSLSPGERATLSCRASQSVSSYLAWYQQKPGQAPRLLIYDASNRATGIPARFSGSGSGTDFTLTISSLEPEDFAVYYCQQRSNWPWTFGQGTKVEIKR
test readout: Bioactivity relative to TL1A-0002
experimental result: 1.4 fold
